TGI: recorded values
# System: NCI-H522 lung
# procedure_details: NCI tumour cell line growth inhibition, 48 h

{"columns": ["compound", "measured_target", "TGI"],
 "data": [
  ["O=[N+]([O-])c1ccc(NN=C2CN3CCN(C2)c2ccccc23)c([N+](=O)[O-])c1", "NCI-H522 lung", "> 100 µM"],
  ["Cc1cc2[nH]c3c(C#N)c(-c4ccccc4)c(N=Nc4ccc(F)cc4)c(=O)n3c2cc1C", "NCI-H522 lung", "> 100 µM"],
  ["COC(=O)[C@H](Cc1c[nH]c2ccccc12)NP(=O)(OCCC#N)OCC1OC(n2cc(C)c(=O)[nH]c2=O)CC1N=[N+]=[N-] (some centres not stated)", "NCI-H522 lung", "> 100 µM"],
  ["CC1=NN(c2cccc(Cl)c2)C2(C1=Cc1ccc(O)cc1)C(Cl)C(=O)N2c1nc2ccccc2s1 (configuration not stated)", "NCI-H522 lung", "49 µM"],
  ["CN(C)c1ccc(Nc2c3ccccc3nc3ccccc23)cc1", "NCI-H522 lung", "2.52 µM"],
  ["COc1cc(/C=C/c2ccc(C)cc2)cc(OC)c1OC", "NCI-H522 lung", "5.7 µM"],
  ["COc1ccccc1/C=C1\\COc2ccc(-c3ccccc3)cc2C1=O", "NCI-H522 lung", "> 100 µM"],
  ["NCCCN(CCCCN(CCCN)C(=O)OCc1ccccc1)C(=O)OCc1ccccc1", "NCI-H522 lung", "85.4 µM"],
  ["Cc1ccc(S(=O)(=O)N2C[C@@H]3CC[C@]4(CO[Si](C)(C)C(C)(C)C)N[C@@H](c5ccccc5)[C@H]2[C@H]34)cc1", "NCI-H522 lung", "> 100 µM"],
  ["O=c1cc(-c2ccccn2)[nH]c2cccc(F)c12", "NCI-H522 lung", "> 100 µM"],
  ["COc1ccccc1N=Nc1c(-c2ccccc2)nn(C(=O)CC(=O)Nc2cccc(C)c2)c1-c1ccccc1", "NCI-H522 lung", "> 100 µM"],
  ["O=C1COc2cc(N3CCN(c4cccc(C(F)(F)F)c4)CC3)ccc2N1", "NCI-H522 lung", "> 100 µM"]
]}
